The following binders are shown together with reported IC50 (read off the curve) values.
measurement target: T1, monkey SIRPA protein (cynomolgus monkey, UniProt P78324 31-504 (human entry))
T1 construct: Expressed on 293α cells from pcDNA3.2 V5-DEST or pFLAG V5-DEST vectors; also called cynomolgus monkey SIRPA; cSIRPA
T1 chain: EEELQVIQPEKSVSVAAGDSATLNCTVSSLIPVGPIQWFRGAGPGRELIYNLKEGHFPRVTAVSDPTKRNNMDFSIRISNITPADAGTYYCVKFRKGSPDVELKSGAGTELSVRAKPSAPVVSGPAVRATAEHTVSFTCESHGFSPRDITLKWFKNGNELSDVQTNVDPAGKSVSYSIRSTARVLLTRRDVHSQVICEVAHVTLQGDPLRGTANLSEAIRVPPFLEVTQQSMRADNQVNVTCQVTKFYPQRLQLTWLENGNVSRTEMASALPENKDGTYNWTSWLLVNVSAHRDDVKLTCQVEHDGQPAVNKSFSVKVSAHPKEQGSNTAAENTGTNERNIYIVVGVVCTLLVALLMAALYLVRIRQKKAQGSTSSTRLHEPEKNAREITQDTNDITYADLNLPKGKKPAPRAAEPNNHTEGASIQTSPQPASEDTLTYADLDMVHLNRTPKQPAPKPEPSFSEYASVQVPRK
method description: blocking cell-based ELISA: peroxidase-labeled CD47-Fc (1 µg/mL) on 293α cells expressing monkey SIRPA; y axis = CD47-Fc signal relative to no antibody (100)

Here is how some binders turned out for IC50 (read off the curve).
INSERT INTO results (binder, value_type, observed_result) VALUES
  ('humanized anti-SIRPA antibody hD13_H2L2 (antibody, human IgG4 S228P, kappa, F234A L235A, V domains shown, hH2 heavy chain (IgG4proFALA) and hL2 kappa light chain; also called H2L2 antibody) VH: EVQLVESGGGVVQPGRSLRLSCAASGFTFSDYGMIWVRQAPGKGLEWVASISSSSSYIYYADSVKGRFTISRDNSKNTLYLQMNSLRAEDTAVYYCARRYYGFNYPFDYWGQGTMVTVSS VL: AIQLTQSPSSLSASVGQRVTITCGASKSVRTYMHWYQQKPGKAPKLLIYSASNLEAGVPSRFSGSGSGTDFTLTISSLQPEDFATYYCQQSNEPPYTFGQGTKLEIKR', 'IC50 (read off the curve)', '~0.9 µg/mL'),
  ('human chimeric anti-SIRPA antibody cD13 (antibody, human IgG4 S228P, kappa, F234A L235A, V domains shown, Human IgG4proFALA heavy chain, human kappa light chain; also called cD13 (IgG4pf); human chimeric antibody D13) VH: EVQLVESGGGLVQPGRSLKLSCLASGFTFSDYGMIWVRQAPGKGLEWVASISSSSSYIYYADTVKGRFTISRENAKNTLFLHMTSLRSEDTALYYCARRYYGFNYPFDYWGQGVMVTVSS VL: DTVLTQSPALAVSLGQRVTISCGASKSVRTYMHWYQQKSGQQPKLLIYSASNLEAGVPSRFSGSGSGTDFTLTIDPVEADDIANYYCQQSNEPPYTFGAGTKLELKR', 'IC50 (read off the curve)', '~0.9 µg/mL'),
  ('humanized anti-SIRPA antibody hD13_H1L3 (antibody, human IgG4 S228P, kappa, F234A L235A, V domains shown, hH1 heavy chain (IgG4proFALA) and hL3 kappa light chain; also called hD13_HIL3; HIL3 antibody) VH: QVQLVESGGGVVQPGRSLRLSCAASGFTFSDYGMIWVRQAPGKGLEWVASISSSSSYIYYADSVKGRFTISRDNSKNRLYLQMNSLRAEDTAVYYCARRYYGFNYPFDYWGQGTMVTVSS VL: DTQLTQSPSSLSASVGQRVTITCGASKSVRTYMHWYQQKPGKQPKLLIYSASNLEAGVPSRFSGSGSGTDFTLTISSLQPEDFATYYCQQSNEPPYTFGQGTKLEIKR', 'IC50 (read off the curve)', '~0.6 µg/mL');

With those in mind, consider the next binder.
Lookup: Quickly give me recorded IC50 (read off the curve) for humanized anti-SIRPA antibody hD13_H1L4 (antibody, human IgG4 S228P, kappa, F234A L235A, V domains shown, hH1 heavy chain (IgG4proFALA) and hL4 kappa light chain; also called hD13_HIL4; hD13_HIL4h) VH: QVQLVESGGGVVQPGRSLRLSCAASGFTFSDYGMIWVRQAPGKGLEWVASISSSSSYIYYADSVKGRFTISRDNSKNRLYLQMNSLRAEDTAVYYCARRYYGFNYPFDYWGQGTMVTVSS VL: DTVLTQSPDSLAVSLGQRATINCGASKSVRTYMHWYQQKPGQQPKLLIYSASNLEAGVPSRFSGSGSGTDFTLTISSLQAEDVAVYYCQQSNEPPYTFGQGTKVEIKR
Found: ~1 µg/mL
